- experiment.summary: Urinary excretion study in rats after oral NS, SF or CNS (LC–MS/MS)
- Assay type: in vivo
- experimental.context: rat urine, oral NS 60 mg/kg, 72 h

| compound | Accumulative excretion percentage / % |
| --- | --- |
| CC(C)=CCC[C@](C)(O[C@@H]1O[C@H](CO)[C@@H](O)[C@H](O)[C@H]1O)[C@H]1CC[C@]2(C)[C@@H]1[C@H](O)C[C@@H]1[C@@]3(C)CC[C@H](O)C(C)(C)[C@@H]3[C@@H](O[C@@H]3O[C@H](CO)[C@@H](O)[C@H](O)[C@H]3O)C[C@]12C [ginsenoside Rg1] | 0.476 |

* * *

Attribute: Accumulative excretion amount
- experiment.summary: Urinary excretion study in rats after oral NS, SF or CNS (LC–MS/MS)
- Type: in vivo
- experimental.context: rat urine, oral NS 60 mg/kg, 4 h
assay.endpoint: Accumulative excretion amount (µg)

| molecule | assay.endpoint | endpoint.unit | result.number |
| --- | --- | --- | --- |
| CC(C)=CCC[C@](C)(O[C@@H]1O[C@H](CO)[C@@H](O)[C@H](O)[C@H]1O)[C@H]1CC[C@]2(C)[C@@H]1[C@H](O)C[C@@H]1[C@@]3(C)CC[C@H](O[C@@H]4O[C@H](CO)[C@@H](O)[C@H](O)[C@H]4O[C@@H]4O[C@H](CO)[C@@H](O)[C@H](O)[C@H]4O)C(C)(C)[C@@H]3CC[C@]12C [ginsenoside Rd] | Accumulative excretion amount | µg | 0.027 |
| CC(C)=CCC[C@](C)(O[C@@H]1O[C@H](CO[C@@H]2O[C@H](CO)[C@@H](O)[C@H](O)[C@H]2O)[C@@H](O)[C@H](O)[C@H]1O)[C@H]1CC[C@]2(C)[C@@H]1[C@H](O)C[C@@H]1[C@@]3(C)CC[C@H](O[C@@H]4O[C@H](CO)[C@@H](O)[C@H](O)[C@H]4O[C@@H]4O[C@H](CO)[C@@H](O)[C@H](O)[C@H]4O)C(C)(C)[C@@H]3CC[C@]12C [ginsenoside Rb1] | Accumulative excretion amount | µg | 0.574 |
| CC(C)=CCC[C@](C)(O[C@@H]1O[C@H](CO)[C@@H](O)[C@H](O)[C@H]1O)[C@H]1CC[C@]2(C)[C@@H]1[C@H](O)C[C@@H]1[C@@]3(C)CC[C@H](O)C(C)(C)[C@@H]3[C@@H](O[C@@H]3O[C@H](CO)[C@@H](O)[C@H](O)[C@H]3O)C[C@]12C [ginsenoside Rg1] | Accumulative excretion amount | µg | 6.610 |
| CC(C)=CCC[C@](C)(O[C@@H]1O[C@H](CO)[C@@H](O)[C@H](O)[C@H]1O)[C@H]1CC[C@]2(C)[C@@H]1[C@H](O)C[C@@H]1[C@@]3(C)CC[C@H](O)C(C)(C)[C@@H]3[C@@H](O[C@@H]3O[C@H](CO)[C@@H](O)[C@H](O)[C@H]3O[C@@H]3O[C@@H](C)[C@H](O)[C@@H](O)[C@H]3O)C[C@]12C [ginsenoside Re] | Accumulative excretion amount | µg | 0.390 |

* * *

- experiment.summary: Urinary excretion study in rats after oral NS, SF or CNS (LC–MS/MS)
- Assay type: in vivo
- experimental.context: rat urine, oral CNS 110 mg/kg, 6 h
Attribute: Excretion amount
assay.endpoint: Excretion amount

| molecule | result |
| --- | --- |
| CC(C)=CCC[C@](C)(O[C@@H]1O[C@H](CO)[C@@H](O)[C@H](O)[C@H]1O)[C@H]1CC[C@]2(C)[C@@H]1[C@H](O)C[C@@H]1[C@@]3(C)CC[C@H](O)C(C)(C)[C@@H]3[C@@H](O[C@@H]3O[C@H](CO)[C@@H](O)[C@H](O)[C@H]3O[C@@H]3O[C@@H](C)[C@H](O)[C@@H](O)[C@H]3O)C[C@]12C [ginsenoside Re] | 0.064 ± 0.030 µg |
| CC(C)=CCC[C@](C)(O[C@@H]1O[C@H](CO)[C@@H](O)[C@H](O)[C@H]1O)[C@H]1CC[C@]2(C)[C@@H]1[C@H](O)C[C@@H]1[C@@]3(C)CC[C@H](O[C@@H]4O[C@H](CO)[C@@H](O)[C@H](O)[C@H]4O[C@@H]4O[C@H](CO)[C@@H](O)[C@H](O)[C@H]4O)C(C)(C)[C@@H]3CC[C@]12C [ginsenoside Rd] | 0.018 ± 0.018 µg |
| CC(C)=CCC[C@](C)(O[C@@H]1O[C@H](CO[C@@H]2O[C@H](CO)[C@@H](O)[C@H](O)[C@H]2O)[C@@H](O)[C@H](O)[C@H]1O)[C@H]1CC[C@]2(C)[C@@H]1[C@H](O)C[C@@H]1[C@@]3(C)CC[C@H](O[C@@H]4O[C@H](CO)[C@@H](O)[C@H](O)[C@H]4O[C@@H]4O[C@H](CO)[C@@H](O)[C@H](O)[C@H]4O)C(C)(C)[C@@H]3CC[C@]12C [ginsenoside Rb1] | 0.158 ± 0.142 µg |
